src = BindingDB's records for doi:10.1021/jm058033i

test: Inhibition of DNA synthesis in IL3 dependent FDC-P1 cells expressing KIT V558D mutant
pIC50: −log10 of the molar value.
outcome measure: pIC50

molecule: O=C(c1cc2cc(O)ccc2[nH]1)c1cc2cc(O)ccc2[nH]1 [Bis-(5-hydroxy-1H-indol-2-yl)-methanone]
pIC50: 6.30
//
molecule: Cc1cccc2[nH]c(C(=O)c3cc4cc(O)ccc4[nH]3)cc12
pIC50: 6.30

###

assay: Inhibition of DNA synthesis in IL3 dependent FDC-P1 cells expressing wild-type KIT
pIC50: −log10 of the molar value.
outcome measure: pIC50

molecule: Cc1cccc2[nH]c(C(=O)c3cc4cc(O)ccc4[nH]3)cc12
value: 6.30
--
molecule: O=C(c1cc2cc(O)ccc2[nH]1)c1cc2cc(O)ccc2[nH]1 [Bis-(5-hydroxy-1H-indol-2-yl)-methanone]
value: 6.30

###

assay: Antiproliferative activity against mouse 32Dcl3 cell line expressing wild-type FLT3
outcome measure: pIC50
To interpret pIC50, take it as minus log10 of a concentration measured in moles per litre.

stdin: Which pIC50 is listed for O=C(c1cc2cc(O)ccc2[nH]1)c1cc2cc(O)ccc2[nH]1 [Bis-(5-hydroxy-1H-indol-2-yl)-methanone] ?
stdout: 7.00
